Assay Target: KMO (Rattus norvegicus, UniProt O88867)
Sequence (O88867 whole entry): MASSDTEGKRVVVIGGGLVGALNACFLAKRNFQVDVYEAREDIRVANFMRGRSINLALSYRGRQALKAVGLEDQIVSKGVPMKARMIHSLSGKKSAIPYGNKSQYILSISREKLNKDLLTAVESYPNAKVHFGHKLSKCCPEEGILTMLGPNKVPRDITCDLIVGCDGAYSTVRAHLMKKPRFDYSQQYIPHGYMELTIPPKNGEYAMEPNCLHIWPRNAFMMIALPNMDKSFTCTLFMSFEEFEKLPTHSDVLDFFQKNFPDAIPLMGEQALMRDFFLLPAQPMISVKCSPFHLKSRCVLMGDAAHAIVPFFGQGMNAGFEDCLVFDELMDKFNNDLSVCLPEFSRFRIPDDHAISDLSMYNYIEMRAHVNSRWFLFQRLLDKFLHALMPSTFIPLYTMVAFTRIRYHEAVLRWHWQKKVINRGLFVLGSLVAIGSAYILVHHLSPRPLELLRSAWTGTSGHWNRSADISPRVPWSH
Value Type: pIC50
pIC50 here: minus log base 10 of the concentration, concentration in moles per litre.

Q: Given COc1ccc(S(=O)(=O)Nc2nc(-c3cccc([N+](=O)[O-])c3)cs2)cc1OC , state its recorded pIC50.
A: 7.43
